Tested on: TK-10
experiment description: NCI tumour cell line growth inhibition, 48 h
The source made the active and inactive calls. Rule as the data show it: active = GI50 up to about 1.1 µM and inactive = higher.
Provide the recorded GI50 for the entries that follow.

### Prompt Kindly state the measured GI50 obtained for "CCN(CC)c1ccc2c(c1)N=C1N=CC=CN1C2(c1ccc(N(C)C)cc1)c1ccc(N(C)C)cc1" with TK-10.
### Response 13 µM (inactive)

### Prompt Kindly state the measured GI50 obtained for C=C[C@H]1CN2CC[C@H]1C[C@@H]2[C@@H](O)c1ccnc2ccccc12 [CINCHONINE] with TK-10.
### Response > 100 µM (inactive)

### Prompt Kindly state the measured GI50 obtained for "O=[N+]([O-])/C=C/c1ccc(Cl)cc1Cl" with TK-10.
### Response > 10 µM (inactive)

### Prompt Kindly state the measured GI50 obtained for COC1=CC2C(c3cc4ccccc4n3S(=O)(=O)c3ccccc3)CC1CN2C(=O)OCc1ccccc1 (configuration not stated) with TK-10.
### Response 67.1 µM (inactive)

### Prompt Kindly state the measured GI50 obtained for "O=Cc1cc2c(cc1-c1c(C=O)ccc3c1OCO3)OCO2" with TK-10.
### Response > 10 µM (inactive)

### Prompt Kindly state the measured GI50 obtained for "CN1N=C(Nc2ccccc2)Sc2c1cnn(-c1ccccc1)c2=O" with TK-10.
### Response > 100 µM (inactive)

### Prompt Kindly state the measured GI50 obtained for O=c1[nH]c2ccccc2n1CCCN1CCC(n2c(=O)[nH]c3cc(Cl)ccc32)CC1 [DOMPERIDONE] with TK-10.
### Response 20.2 µM (inactive)

### Prompt Kindly state the measured GI50 obtained for "O=C(O)Cc1cc(=O)oc2cc(O)c(Cl)cc12" with TK-10.
### Response > 100 µM (inactive)

### Prompt Kindly state the measured GI50 obtained for O=S1(=O)C(c2ccccc2)C(N2CCCCC2)C1C1CC2c3ccccc3C1c1ccccc12 (configuration not stated) with TK-10.
### Response > 100 µM (inactive)

### Prompt Kindly state the measured GI50 obtained for "CCOC(=O)c1nnn(CCCCO)c1C(=O)OCC" with TK-10.
### Response > 100 µM (inactive)

### Prompt Kindly state the measured GI50 obtained for CC1(C)OCC(C(O)C2OC(C)(C)OC2C=O)O1 (configuration not stated) with TK-10.
### Response > 100 µM (inactive)

### Prompt Kindly state the measured GI50 obtained for "O=C1c2cccnc2S(=O)(=O)N1c1ccc([N+](=O)[O-])cc1" with TK-10.
### Response > 100 µM (inactive)
